# Test system: IL-2 in Jurkat (ATCC, clone E6.1) cells stimulated with anti-CD3/28/2
# protocol summary: Jurkat IL-2 Assay
# Assay type: cell-based
# applied conditions: Homo sapiens; IL-2 inhibition, Jurkat cells, 30 min compound then anti-CD3/28/2 stimulation for 24 hours; mean value if tested more than once; read-out: IC50
Attribute: IC50

| molecule | IC50 |
| --- | --- |
| CO[C@@H](C)c1c(Nc2ccc([C@H](N(C)C(=O)C3CCCN(C(C)=O)C3)C(F)(F)F)cc2)cnc2nc(Cl)nn12 (stereo partly drawn) | 100 to 1000 nM |
| CO[C@@H](C)c1c(Nc2ccc([C@H](N(C)C(=O)C3CCN(S(C)(=O)=O)CC3)C(F)(F)F)cc2)cnc2nc(Cl)nn12 | 100 to 1000 nM |
| CO[C@@H](C)c1c(Nc2ccc([C@H](N(C)C(=O)C3CCOC3)C(F)(F)F)cc2)cnc2nc(Cl)nn12 (stereo partly drawn) | 100 to 1000 nM |
| CO[C@@H](C)c1c(Nc2ccc([C@H](N(C)C(=O)C3CCCN(C(=O)OC(C)(C)C)C3)C(F)(F)F)cc2)cnc2nc(Cl)nn12 (stereo partly drawn) | > 1000 nM |
| CO[C@@H](C)c1c(Nc2ccc([C@H](N(C)C(=O)[C@H]3CC[C@H](C(N)=O)CC3)C(F)(F)F)cc2)cnc2nc(Cl)nn12 | 100 to 1000 nM |
| CO[C@@H](C)c1c(Nc2ccc([C@H](N(C)C(=O)C3CCCCO3)C(F)(F)F)cc2)cnc2nc(Cl)nn12 (stereo partly drawn) | 100 to 1000 nM |

====

# Test system: IL-2 in Jurkat (ATCC, clone E6.1) cells stimulated with anti-CD3/28/2
# protocol summary: Jurkat IL-2 Assay
# Assay type: cell-based
# applied conditions: Homo sapiens; IL-2 inhibition, Jurkat cells, 30 min compound then anti-CD3/28/2 stimulation for 24 hours; mean value if tested more than once; read-out: IC50

| compound | IC50 |
| --- | --- |
| CO[C@@H](C)c1c(Nc2ccc(C(C)N(C)C(C)=O)cc2)cnc2nc(Cl)nn12 (some centres unmarked) [Compound 1.24] | > 1000 nM |
| CO[C@@H](C)c1c(Nc2ccc(C(N(C)C(C)=O)C(F)(F)F)cc2)cnc2nc(Cl)nn12 (some centres unmarked) [Compound 1.25] | > 1000 nM |
| CO[C@@H](C)c1c(Nc2ccc(C(C)N(C)C(=O)C3CCC3)cc2)cnc2nc(Cl)nn12 (some centres unmarked) [Compound 1.20] | > 1000 nM |
| CC(C)c1c(Nc2ccc([C@H](N(C)C(=O)C3CCS(=O)(=O)CC3)C(F)(F)F)cc2)cnc2nc(Cl)nn12 [Compound 1.18] | < 100 nM |
| CO[C@@H](C)c1c(Nc2ccc([C@H](N(C)C(=O)[C@H]3C[C@H](C(=O)O)C3)C(F)(F)F)cc2)cnc2nc(Cl)nn12 [Compound 7.3] | > 1000 nM |
| COC(=O)NC1CCC(C(=O)N(C)[C@@H](c2ccc(Nc3cnc4nc(Cl)nn4c3[C@H](C)OC)cc2)C(F)(F)F)CC1 (some centres unmarked) [Compound 1.16] | 100 to 1000 nM |
| CO[C@@H](C)c1c(Nc2ccc([C@H](N(C)C(=O)C3CCN(S(C)(=O)=O)C3)C(F)(F)F)cc2)cnc2nc(Cl)nn12 (some centres unmarked) [Compound 3.10] | 100 to 1000 nM |
| CO[C@@H](C)c1c(Nc2ccc([C@H](N(C)C(=O)C3CCN(S(=O)(=O)C(C)C)CC3)C(F)(F)F)cc2)cnc2nc(Cl)nn12 [Compound 3.2] | 100 to 1000 nM |
